procedure-details: Pharmacokinetic measurement in mouse, single sc dose 30 nmol/kg, plasma ELISA
experimental-parameters: single sc dose 30 nmol/kg
readout-kind: AUC0-24 h (nM·h)
Numbers only, in nM·h.

molecule	AUC0-24 h [nM·h]
MLC002: fusion polypeptide SEQ ID NO: 249 conjugated with Moiety A at 26K of GLP-1 (conjugate, Moiety A conjugated at K26) HGEGTFTSDVSSYLEEQAAKEFIAWLVRGGGGQEPGQEPGQEPGQEPGQEPGQEPGQEPGQEPGAQPGAQPARQGDHCPLGPGRCCRLHTVRASLEDLGWADWVLSPREVQVTMCIGACPSQFRAANLHAQIKTSLHRLRPDTVPAPCCVPASYNPMVLIQRTDTGVSLQTYDDLLARDCHCI	36.2

Tell me the measured AUC0-24 h of MLC013: fusion polypeptide SEQ ID NO: 260 conjugated with Moiety A at 1K of Linker (conjugate, Moiety A conjugated at linker K1) HGEGTFTSDVSSYLEEQAAREFIAWLVRGGGKQEPGAQPGQEPGAQPGQEPGAQPGQEPGAQPGQEPGAQPGQEPGAQPGAQPGAQPGAQPGAQPGAQPGAQPGAQPGAQPARQGDHCPLGPGRCCRLHTVRASLEDLGWADWVLSPREVQVTMCIGACPSQFRAANLHAQIKTSLHRLRPDTVPAPCCVPASYNPMVLIQRTDTGVSLQTYDDLLARDCHCI , please. 503.5
